Measured growth by item
- Test system: HOP-62 NSCLC
- protocol-text: NCI-60 one-dose screen, 48 h (100 = growth as untreated, 0 = no growth, -100 = all killed)
- assay-setup: 10 µM unless noted
About 83,000 compounds went through this panel and 20% of them were active in at least one assay; those are over-represented in the sample as a whole. Active and inactive are the calls of the source. How the source made its calls: active means growth percent below 10; inactive means the rest.
measure-name: growth

>>> experimental_value("COc1ccc(/C=C2\\COc3ccc(-c4ccccc4)cc3C2=O)c(OC)c1")
"120% (inactive)"
>>> experimental_value("CCC(=O)Oc1ccc(/C(=C(\\C)c2ccccc2)c2ccc(OCCN3CCCCC3)cc2)cc1")
"76% (inactive)"
>>> experimental_value("COc1c(Cl)c2c(c(OC)c1OC)-c1ccc(SC)c(=O)cc1[C@@H](NC(=O)OCC(F)(F)F)CC2")
"34.3% (inactive)"
>>> experimental_value("COc1cc2cc(CN3CCN(c4nccc(-c5ccc6ccccc6c5)n4)CC3)c(=O)[nH]c2cc1OC")
"96.2% (inactive)"
>>> experimental_value("CCCOC(=O)N[C@H]1CCc2cc(OC)c(OC)c(OC)c2-c2ccc(SC)c(=O)cc21")
"39.3% (inactive)"

----------
- Tested on: KM12 colon
- protocol-text: NCI-60 one-dose screen, 48 h (100 = growth as untreated, 0 = no growth, -100 = all killed)
- assay-setup: 10 µM unless noted
Compounds without any hit were thinned out: in the full panel of roughly 83,000, 20% have a hit. Active and inactive are the calls of the source. Rule for the calls: active = growth percent below 10; inactive = the rest.
measure-name: growth

>>> experimental_value("O=C1Nc2cc(Cl)ccc2/C1=C\\c1c(-c2ccc(F)cc2)nc2ccccn12")
"-1.1% (active)"
>>> experimental_value("CNC(=O)c1cc(Cn2nc(C)c(NC(=O)Nc3ccc(Cl)c(C(F)(F)F)c3)c2C)ccn1")
"106% (inactive)"
>>> experimental_value("COc1cc(C2C3=C(COC3=O)N(CCO)c3cc4c(cc32)CCC4)cc(OC)c1OC (centres undefined)")
"-16.9% (active)"
>>> experimental_value("CC1(C)NCCC[C@]2(C)[C@H]3CC[C@@H]4[C@H]5[C@H](C(=O)/C=C/c6ccco6)CC[C@]5(CO)CC[C@@]4(C)[C@]3(C)CC[C@@H]12")
"82.9% (inactive)"

----------
The entries below are paired with their reported growth.
- Tested on: RXF 393 renal
- protocol-text: NCI-60 one-dose screen, 48 h (100 = growth as untreated, 0 = no growth, -100 = all killed)
- assay-setup: 10 µM unless noted
This is part of a sample that, as a whole, favours compounds with a hit. Of some 83,000 tested, about 20% had one in any assay.
measure-name: growth (%)

>>> experimental_value("O=C(/C=C(O)/C=C/c1ccc(SC(F)(F)F)cc1)/C=C/c1ccc(SC(F)(F)F)cc1")
104
>>> experimental_value("Cc1ccc(NC(=O)c2cc(-c3nc4ccccc4s3)c(=O)n(NS(=O)(=O)c3ccc(Cl)cc3)c2N)cc1")
112
>>> experimental_value("CCN(CC)CCn1c(=O)c2cc(OC)c(OC)cc2c2ccc3cc4c(cc3c21)OCO4")
8.86
>>> experimental_value("COc1ccc(C(=O)C2C(C#N)C(C#N)C3C=Cc4ccccc4N32)cc1 (stereo not given)")
-21.8
>>> experimental_value("Cc1ccc(NC(=O)Cc2ccc(/C=C/C(=O)c3ncc[nH]3)cc2)cc1")
52.7
>>> experimental_value("Cc1ccc(S(=O)(=O)NNC(=O)/C(=C\\c2ccc(Cl)cc2)c2nc3ccccc3s2)cc1")
101
>>> experimental_value("O=S(=O)(NCCNc1nccc(-c2c(-c3cccc(F)c3)nc3sccn23)n1)c1ccc(Cl)cc1")
69
>>> experimental_value("Cc1ccc(NS(=O)(=O)c2ccc(-c3cnc(C4CC4)o3)cc2)cc1C(F)(F)F")
69.4
>>> experimental_value("CC(=O)[C@@H]1CC[C@]2(C(N)=O)CC[C@]3(C)[C@H](CC[C@@H]4[C@@]5(C)CCCNC(C)(C)[C@@H]5CC[C@]43C)[C@@H]12")
69.5
>>> experimental_value("O=C1Nc2cc(-c3ccc(NS(=O)(=O)c4ccccc4)cc3)ccc2/C1=C/c1ccc[nH]1")
104
>>> experimental_value("CCOC(=O)c1ccc2c(c1)ncn2-c1ccc(NC(=O)Nc2cccc(C)c2)cc1")
84.5
>>> experimental_value("Cc1ccc(/C=N/NC(=O)CSc2nc3ccccc3c(=O)n2Cc2ccc(S(N)(=O)=O)cc2)cc1")
86.8
>>> experimental_value("Cc1ccc(C(=O)/C(=C/c2ccc([N+](=O)[O-])cc2)SCc2ccc(Cl)cc2)cc1")
95.4
>>> experimental_value("COc1ccccc1/C(C)=N/NC(=O)CSc1nc2ccccc2c(=O)n1Cc1ccc(S(N)(=O)=O)cc1")
95.9
>>> experimental_value("COc1cc2nc(-c3ccc(C(F)(F)F)cc3)cc(OCCCN3CCOCC3)c2cc1OC")
14.5
>>> experimental_value("O=C1Nc2ccccc2/C1=C\\c1c(-c2ccccc2)nc2ccccn12")
26.8
>>> experimental_value("CCN1Cc2nc3sc(C)c(C)c3c(=O)n2C=C1C")
45.8
>>> experimental_value("COc1cc(CC(=O)n2ncc3ccc(N)cc32)cc(OC)c1OC")
108
>>> experimental_value("Cc1cc2cc3ccc(N(C)C)cc3nc2cc1N")
-38
>>> experimental_value("O=C1Nc2cc(-c3cccc(O)c3)ccc2/C1=C/c1ccc[nH]1")
-39.8
